Hello, the source for this data is paper PMC7397336, in case you need it.

Reported melting point values for a set of molecules

Examples with answers:
{"columns": ["Mol Smiles", "Value Kind", "Measurement"],
 "data": [
  ["O=C1OC(c2ccccc2)=N/C1=C\\c1ccc(Oc2ccccc2)cc1", "melting point", "169 °C"],
  ["O=C(N/C(=C\\c1ccc(OCc2ccc(Br)cc2)cc1)C(=O)N1CCN(C(=O)/C(=C/c2ccc(OCc3ccc(Br)cc3)cc2)NC(=O)c2ccccc2)CC1)c1ccccc1", "melting point", "285 to 286 °C"],
  ["O=C(N/C(=C\\c1cccc2ccccc12)C(=O)N1CCN(C(=O)/C(=C/c2cccc3ccccc23)NC(=O)c2ccccc2)CC1)c1ccccc1", "melting point", "282 to 284 °C"]
]}

Next up:
Recorded result, `O=C(N/C(=C\c1ccco1)C(=O)N1CCN(C(=O)/C(=C/c2ccco2)NC(=O)c2ccccc2)CC1)c1ccccc1` , melting point: 293 to 295 °C

---

inhibition at 100 µM for assorted compounds
- Target System: mushroom tyrosinase (Agaricus bisporus, UniProt C7FF04)
- Sequence (G1K3P4 entry or part of it): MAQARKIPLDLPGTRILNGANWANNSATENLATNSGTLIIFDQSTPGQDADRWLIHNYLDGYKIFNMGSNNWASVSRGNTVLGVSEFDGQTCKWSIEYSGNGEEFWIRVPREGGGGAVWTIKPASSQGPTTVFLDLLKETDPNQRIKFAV
- Sequence (C7FF04 1-392): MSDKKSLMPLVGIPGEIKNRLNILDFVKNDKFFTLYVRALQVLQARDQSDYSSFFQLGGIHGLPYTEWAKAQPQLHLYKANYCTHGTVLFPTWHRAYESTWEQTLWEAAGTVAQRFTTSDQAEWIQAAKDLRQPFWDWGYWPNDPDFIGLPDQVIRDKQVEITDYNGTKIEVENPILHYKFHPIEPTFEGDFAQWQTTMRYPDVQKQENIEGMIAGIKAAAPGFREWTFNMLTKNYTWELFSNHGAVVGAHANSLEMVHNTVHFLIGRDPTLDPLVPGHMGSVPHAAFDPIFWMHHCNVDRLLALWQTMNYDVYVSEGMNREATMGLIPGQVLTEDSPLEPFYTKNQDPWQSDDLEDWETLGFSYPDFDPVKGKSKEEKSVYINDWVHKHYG
- Procedure Details: Tyrosinase inhibition assay
- Format: biochemical
- Test Settings: L-Dopa substrate, read-out: ΤyrI% 100 μM (inhibition of mushroom tyrosinase)
Reply with the number, then its unit.

Use these answered entries as a reference point.
{"columns": ["Compound", "Value Kind", "Measurement"],
 "data": [
  ["O=C(N/C(=C\\c1cccs1)C(=O)N1CCOCC1)c1ccccc1 [Compound 3c]", "inhibition at 100 µM", "7%"],
  ["O=C1OC(c2ccccc2)=N/C1=C\\c1ccco1 [Compound 2e]", "inhibition at 100 µM", "3%"],
  ["O=C(N/C(=C\\c1cccs1)C(=O)N1CCCCC1)c1ccccc1 [Compound 5c]", "inhibition at 100 µM", "13%"],
  ["O=C(N/C(=C\\c1ccco1)C(=O)N1CCN(C(=O)/C(=C/c2ccco2)NC(=O)c2ccccc2)CC1)c1ccccc1 [Compound 4e]", "inhibition at 100 µM", "17%"],
  ["O=C(N/C(=C\\c1ccc(OCc2ccc(Br)cc2)cc1)C(=O)N1CCN(C(=O)/C(=C/c2ccc(OCc3ccc(Br)cc3)cc2)NC(=O)c2ccccc2)CC1)c1ccccc1 [Compound 4b]", "inhibition at 100 µM", "12%"],
  ["O=C(N/C(=C\\c1cccs1)C(=O)N1CCN(C(=O)/C(=C/c2cccs2)NC(=O)c2ccccc2)CC1)c1ccccc1 [Compound 4c]", "inhibition at 100 µM", "42%"],
  ["CCOC(=O)/C(=C/c1cccs1)NC(=O)c1ccccc1 [Compound 6c]", "inhibition at 100 µM", "5%"],
  ["O=C(N/C(=C\\c1cccc2ccccc12)C(=O)N1CCN(C(=O)/C(=C/c2cccc3ccccc23)NC(=O)c2ccccc2)CC1)c1ccccc1 [Compound 4d]", "inhibition at 100 µM", "28%"]
]}

Memo: O=C1OC(c2ccccc2)=N/C1=C\c1cccc2ccccc12 [Compound 2d] , reported inhibition at 100 µM: 5%

Recorded inhibition at 100 µM (compound O=C(N/C(=C\c1ccccc1)C(=O)N1CCN(C(=O)/C(=C/c2ccccc2)NC(=O)c2ccccc2)CC1)c1ccccc1 [Compound 4a] ): 33%

Entry O=C1OC(c2ccccc2)=N/C1=C\c1cccs1 [Compound 2c] , inhibition at 100 µM reported as 16%

---

- Target System: soybean lipoxygenase (Glycine max, UniProt P08170)
- Construct: purchased Sigma Chemical, Co. (St. Louis, MO, USA)
- Sequence (P08170 whole entry): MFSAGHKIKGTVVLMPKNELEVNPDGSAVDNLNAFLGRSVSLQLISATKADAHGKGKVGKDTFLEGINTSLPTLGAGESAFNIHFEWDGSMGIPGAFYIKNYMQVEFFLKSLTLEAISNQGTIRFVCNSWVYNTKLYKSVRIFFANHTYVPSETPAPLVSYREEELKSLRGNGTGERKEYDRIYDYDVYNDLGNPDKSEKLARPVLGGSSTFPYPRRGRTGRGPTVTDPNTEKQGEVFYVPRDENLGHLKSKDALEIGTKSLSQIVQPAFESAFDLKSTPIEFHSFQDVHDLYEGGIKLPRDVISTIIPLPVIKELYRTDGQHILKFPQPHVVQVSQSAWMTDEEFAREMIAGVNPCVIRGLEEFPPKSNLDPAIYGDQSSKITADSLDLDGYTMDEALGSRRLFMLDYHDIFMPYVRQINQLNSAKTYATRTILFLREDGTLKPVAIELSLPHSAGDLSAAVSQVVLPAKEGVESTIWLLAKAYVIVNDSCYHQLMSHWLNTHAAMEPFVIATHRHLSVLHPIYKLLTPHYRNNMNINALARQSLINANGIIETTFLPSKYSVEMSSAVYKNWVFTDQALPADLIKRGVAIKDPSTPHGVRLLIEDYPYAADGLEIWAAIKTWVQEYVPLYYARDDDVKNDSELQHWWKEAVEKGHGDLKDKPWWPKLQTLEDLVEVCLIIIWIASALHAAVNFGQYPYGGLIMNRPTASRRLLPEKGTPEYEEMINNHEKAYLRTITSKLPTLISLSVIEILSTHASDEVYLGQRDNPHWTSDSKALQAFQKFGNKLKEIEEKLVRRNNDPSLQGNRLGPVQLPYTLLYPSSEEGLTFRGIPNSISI
- Procedure Details: Soybean lipoxygenase inhibition study
- Type: biochemical
- Test Settings: soybean lipoxygenase, sodium linoleate 0.1 mM; read-out: LOX IC50
Value Kind: pIC50
Recall that pIC50 is obtained by taking minus log10 of the concentration measured in molar.

{"columns": ["Compound", "pIC50"],
 "data": [
  ["O=C(N/C(=C\\c1ccc(OCc2ccc(Br)cc2)cc1)C(=O)N1CCN(C(=O)/C(=C/c2ccc(OCc3ccc(Br)cc3)cc2)NC(=O)c2ccccc2)CC1)c1ccccc1 [Compound 4b]", 4.07]
]}

// below: pIC50 requested for another compound
Entry O=C(N/C(=C\c1ccco1)C(=O)N1CCN(C(=O)/C(=C/c2ccco2)NC(=O)c2ccccc2)CC1)c1ccccc1 [Compound 4e] ; pIC50 = 4.06
